- TESTED_ON: soluble histidine-tagged form of human TLR4/MD2 complex (human, UniProt Q9Y6Y9 19-160)
- Sequence (Q9Y6Y9 19-160, one chain of several): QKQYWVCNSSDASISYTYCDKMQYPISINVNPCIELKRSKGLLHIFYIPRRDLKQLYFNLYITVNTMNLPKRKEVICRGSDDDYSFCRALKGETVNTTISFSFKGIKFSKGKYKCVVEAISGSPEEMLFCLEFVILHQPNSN
- METHOD_DESCRIPTION: competitive ELISA; 15C1 reference EC50 divided by variant EC50
Entries and their Relative binding potency increase values follow.
Express your answer in fold, writing the number without its unit.

{"columns": ["BINDER", "Relative binding potency increase (fold)"],
 "data": [
  ["1E11.C2 antibody (IgG1) (antibody, V domains shown) VH: QVQLQESGPGLVKPSDTLSLTCAVSGYPIRFGYSWHWIRQPPGKGLEWMGYIHYSGYTDFNPSLKTRITISRDTSKNQFSLKLSSVTAVDTAVYYCARKDSGNYFPYWGQGTLVTVSS VL: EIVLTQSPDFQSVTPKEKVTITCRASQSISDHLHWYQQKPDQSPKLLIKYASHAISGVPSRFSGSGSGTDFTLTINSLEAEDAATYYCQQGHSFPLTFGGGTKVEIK", 17]
]}

Input: Recorded Relative binding potency increase of 1E11.C1 antibody (IgG1 reformatted) (antibody, V domains shown, VH 67 / VL 4 are the variable domains) VH: QVQLQESGPGLVKPSDTLSLTCAVSGFPIRYGYSWHWIRQPPGKGLEWMGYIHYSGYTDFNPSLKTRITISRDTSKNQFSLKLSSVTAVDTAVYYCARKDSGNYFPYWGQGTLVTVSS VL: EIVLTQSPDFQSVTPKEKVTITCRASQSISDHLHWYQQKPDQSPKLLIKYASHAISGVPSRFSGSGSGTDFTLTINSLEAEDAATYYCQQGHSFPLTFGGGTKVEIKR , please.
Output: 12

Input: Recorded Relative binding potency increase of 1E11.C3 antibody (IgG1) (antibody, V domains shown) VH: QVQLQESGPGLVKPSDTLSLTCAVSGYPIRHGYSWHWIRQPPGKGLEWMGYIHYSGYTDFNPSLKTRITISRDTSKNQFSLKLSSVTAVDTAVYYCARKDSGNYFPYWGQGTLVTVSS VL: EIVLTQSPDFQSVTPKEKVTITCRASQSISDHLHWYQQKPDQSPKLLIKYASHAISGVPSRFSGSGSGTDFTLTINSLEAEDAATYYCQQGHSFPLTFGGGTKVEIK , please.
Output: 5
